Each recorded value in this set is attributed to ChEMBL document CHEMBL2177082.

- test.system: P2Y purinoceptor 1 (Meleagris gallopavo, UniProt P49652)
- Sequence (P49652 whole entry): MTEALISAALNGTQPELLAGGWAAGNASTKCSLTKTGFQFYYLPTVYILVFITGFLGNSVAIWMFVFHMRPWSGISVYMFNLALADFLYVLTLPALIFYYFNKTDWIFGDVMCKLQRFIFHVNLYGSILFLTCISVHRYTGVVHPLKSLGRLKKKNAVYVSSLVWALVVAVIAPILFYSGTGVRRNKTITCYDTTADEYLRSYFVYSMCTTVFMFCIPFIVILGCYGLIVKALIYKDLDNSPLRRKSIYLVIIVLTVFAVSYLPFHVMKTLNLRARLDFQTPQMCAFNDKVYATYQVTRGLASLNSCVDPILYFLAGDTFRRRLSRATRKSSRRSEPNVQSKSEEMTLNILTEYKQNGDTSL
- assay.info: Agonist activity at turkey P2Y1R expressed in 1321N1 cells assessed as increase in intracellular calcium concentration by spectrofluorimetry
Kindly supply the reported pEC50 values for the records listed here.
Here pEC50 is given on a logarithmic scale as minus log10 of the concentration in mol/L.

Incoming: Find the measured pEC50: item B[P@](=O)(OC[C@H]1O[C@@H](n2cnc3c(N)ncnc32)[C@H](O)[C@@H]1O)OP(=O)(O)O , target or system P2Y purinoceptor 1 (Meleagris gallopavo, UniProt P49652).
Outgoing: 6.02

Incoming: Look up pEC50 with P2Y purinoceptor 1 (Meleagris gallopavo, UniProt P49652) for this compound: [BH3-][P@@](=O)(OC[C@H]1O[C@@H](n2cnc3c(N)ncnc32)[C@H](O)[C@@H]1O)OP(=O)([O-])[O-].[Na+].[Na+].[Na+]
Outgoing: 6.66

Incoming: Which pEC50 is reported with P2Y purinoceptor 1 (Meleagris gallopavo, UniProt P49652) for this entry: B[P@](=O)(OC[C@H]1O[C@@H](n2cnc3c(N)nc(SC)nc32)[C@H](O)[C@@H]1O)OP(=O)(O)O ?
Outgoing: 5.96

* * *

For each entry below, report its half-life at 40000 µM value.
- assay.info: Half life in human serum at 40 mM by HPLC
- Assay type: ADME, cell-free

Incoming: half-life at 40000 µM for [BH3-][P@@](=O)(OC[C@H]1O[C@@H](n2cnc3c(N)nc(SC)nc32)[C@H](O)[C@@H]1O)OP(=O)([O-])[O-].[Na+].[Na+].[Na+] ?
Outgoing: > 24 h

Incoming: Looking for the measured half-life at 40000 µM of B[P@](=O)(OC[C@H]1O[C@@H](n2cnc3c(N)nc(SC)nc32)[C@H](O)[C@@H]1O)OP(=O)(O)OP(=O)(O)OC[C@H]1O[C@@H](n2cnc3c(N)nc(SC)nc32)[C@H](O)[C@@H]1O.CCCCN(CCCC)CCCC.CCCCN(CCCC)CCCC.CCCCN(CCCC)CCCC (single isomer, unassigned) , can you help?
Outgoing: 14 h

Incoming: Which measured half-life at 40000 µM value corresponds to B[P@@](=O)(OC[C@H]1O[C@@H](n2cnc3c(N)nc(SC)nc32)[C@H](O)[C@@H]1O)OP(=O)(O)OP(=O)(O)OC[C@H]1O[C@@H](n2cnc3c(N)nc(SC)nc32)[C@H](O)[C@@H]1O.CCCCN(CCCC)CCCC.CCCCN(CCCC)CCCC.CCCCN(CCCC)CCCC ?
Outgoing: 14 h

* * *

- assay.info: Half life in HCL/KCL buffer at pH 1.4 at 1.5 mg by HPLC
- Assay type: physicochemical
recorded.metric: half-life (min)
API: value field is a number in min; no unit string.

Incoming: For the molecule shown here, [BH3-]P(=O)(OC[C@H]1O[C@@H](n2cnc3c(N)nc(SC)nc32)[C@H](O)[C@@H]1O)OP(=O)([O-])[O-].[Na+].[Na+].[Na+] (mixture of isomers) , give the reported half-life.
Outgoing: 438

* * *

Would you kindly list pEC50 for each of these compounds?
- test.system: P2Y purinoceptor 1 (Meleagris gallopavo)
- assay.info: Agonist activity at turkey P2Y1R expressed in 1321N1 cells assessed as increase in intracellular calcium concentration by spectrofluorimetry
# pEC50: negative log10 of molar concentration; output just the value

Incoming: Fill in: pEC50 of B[P@@](=O)(OC[C@H]1O[C@@H](n2cnc3c(N)nc(SC)nc32)[C@H](O)[C@@H]1O)OP(=O)(O)OP(=O)(O)OC[C@H]1O[C@@H](n2cnc3c(N)nc(SC)nc32)[C@H](O)[C@@H]1O.CCCCN(CCCC)CCCC.CCCCN(CCCC)CCCC.CCCCN(CCCC)CCCC is ___
Outgoing: 6.85

Incoming: Consider the compound B[P@](=O)(OC[C@H]1O[C@@H](n2cnc3c(N)nc(SC)nc32)[C@H](O)[C@@H]1O)OP(=O)(O)OP(=O)(O)OC[C@H]1O[C@@H](n2cnc3c(N)nc(SC)nc32)[C@H](O)[C@@H]1O.CCCCN(CCCC)CCCC.CCCCN(CCCC)CCCC.CCCCN(CCCC)CCCC (single isomer, unassigned) and give its measured pEC50.
Outgoing: 6.72

* * *

- assay.info: Half life in Tris buffer at pH 9.8 at 0.2 mg by HPLC in presence of alkaline phosphatase
- Assay type: physicochemical
- condition.set: in vitro
Please go through the items and note down their t1/2.
Answer format: numeric, h implied, no suffix.

Incoming: Report t1/2 for CSc1nc(N)c2ncn([C@@H]3O[C@H](COP(=O)(O)OP(=O)(O)O)[C@@H](O)[C@H]3O)c2n1 please.
Outgoing: 4.5

Incoming: Dear colleague, I am looking for the recorded t1/2 of the following compound: [BH3-][P@@](=O)(OC[C@H]1O[C@@H](n2cnc3c(N)ncnc32)[C@H](O)[C@@H]1O)OP(=O)([O-])[O-].[Na+].[Na+].[Na+]
Outgoing: 4.2

Incoming: Recorded t1/2 for Nc1ncnc2c1ncn2[C@@H]1O[C@H](COP(=O)(O)OP(=O)(O)O)[C@@H](O)[C@H]1O [ADENOSINE DIPHOSPHATE] , please?
Outgoing: 4

Incoming: Give the measured t1/2 of [BH3-][P@@](=O)(OC[C@H]1O[C@@H](n2cnc3c(N)nc(SC)nc32)[C@H](O)[C@@H]1O)OP(=O)([O-])[O-].[Na+].[Na+].[Na+] .
Outgoing: 6

* * *

- test.system: P2Y purinoceptor 1 (Rattus norvegicus, UniProt P49651)
- Sequence (P49651 whole entry): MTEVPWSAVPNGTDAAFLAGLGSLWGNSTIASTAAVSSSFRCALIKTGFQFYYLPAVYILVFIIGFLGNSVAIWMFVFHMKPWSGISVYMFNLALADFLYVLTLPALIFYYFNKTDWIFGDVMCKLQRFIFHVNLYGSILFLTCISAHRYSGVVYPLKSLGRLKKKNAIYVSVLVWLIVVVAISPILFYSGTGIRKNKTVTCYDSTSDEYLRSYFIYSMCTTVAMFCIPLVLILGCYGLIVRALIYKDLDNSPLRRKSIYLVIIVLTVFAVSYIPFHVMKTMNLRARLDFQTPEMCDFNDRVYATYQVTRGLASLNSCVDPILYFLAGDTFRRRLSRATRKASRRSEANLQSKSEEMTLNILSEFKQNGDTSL
- assay.info: Agonist activity at rat P2Y1R expressed in HEK293 cells assessed as release of intracellular calcium by fluorescence based assay
- Type: functional, cell-based
recorded.metric: EC50 (nM)
API: value field is a number in nM; no unit string.

Incoming: Fill in: EC50 of B[P@@](=O)(OC[C@H]1O[C@@H](n2cnc3c(N)nc(SC)nc32)[C@H](O)[C@@H]1O)OP(=O)(O)OP(=O)(O)O is ___
Outgoing: 2.6
